test system: Nucleic Acid; experiment: The C50 value refers to the concentration of compound required to displace 50% of the ethidium bromide from the DNA.; format: nucleic-acid assay; details: Bos taurus
attribute-measured: C50 (µM)

{"structure-string": "CCc1c(CC)c2cc3nc(cc4[nH]c(c(C)c4CC)c4[nH]c(cc5nc(cc1[nH]2)C(CCC(=O)N(CCO)CCO)=C5C)c(CC)c4C)C(C)=C3CCC(=O)N(CCO)CCO", "C50 [µM]": 1.2}
{"structure-string": "CCc1c(CC)c2cc3nc(cc4[nH]c(c(C)c4CC)c4[nH]c(cc5nc(cc1[nH]2)C(CCC(=O)NCCN(CCN)CCN)=C5C)c(CC)c4C)C(C)=C3CCC(=O)NCCN(CCN)CCN", "C50 [µM]": 0.114}

(A) NCCN(CCN)CCN
(B) CCc1c(CC)c2cc3nc(cc4[nH]c(c(C)c4CC)c4[nH]c(cc5nc(cc1[nH]2)C(CCC(=O)NCCNCCN)=C5C)c(CC)c4C)C(C)=C3CCC(=O)NCCNCCN
Which numeric C50 is bigger, that of A or that of B ? Answer by stating the label of the chosen item.
A
